Entries and their protein stability index
B1: KLHDC10 (parent)
chain: PSLLELAWEKLLAAFPNLANLSRT

# Variants of: B1
# Assay Protocol: protein stability index of a GFP-peptide fusion (GPS, HEK-293T) (PSI 1-6); higher = more stable;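 further: lentivirally expressed fusions sorted by FACS into six bins by GFP to DsRed ratio, PSI derived from sequencing read proportions per bin multiplied by bin number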
# Recorded Conditions: c terminus: a fixed tail appended
Measurement Label: protein stability index

> print(dat)
    variant.spec        measurement.label  data.value
 1          A14M  protein stability index        2.19
 2           E9N  protein stability index        2.62
 3           S2M  protein stability index        1.61
 4          K10T  protein stability index        1.69
 5           L4V  protein stability index        2.26
 6           A7T  protein stability index        1.28
 7          S22R  protein stability index        2.71
 8          L12F  protein stability index         2.3
 9           W8G  protein stability index        2.78
10           L4Y  protein stability index        2.06
11          T24C  protein stability index         1.6
12          A19E  protein stability index        2.31
13           E9R  protein stability index        2.37
14           S2H  protein stability index        1.78
15           E5H  protein stability index        2.39
16          S22I  protein stability index        2.28
17           S2A  protein stability index        2.09
18          R23H  protein stability index        2.02
19          L21N  protein stability index        2.52
20           S2T  protein stability index        1.96
21           S2I  protein stability index        1.17
22          L21I  protein stability index        1.76
